target: SARS-CoV-2 spike protein on pseudotyped lentivirus (Wuhan Reference Pseudovirus) (SARS-CoV-2, UniProt P0DTC2 14-1273); assay: cell-based or functional assay
property name: infectivity % under 10 ug/mL VHH treatment (%)
Note: unit % is implicit; provide only the numeric part.

# input binder: PP811 MBP-R2D-D3-H6 (VHH, Form: Monomer) VHH: QVQLVESGGGLVQPGGSLRLSCAASGHIFSINNAAWVRQAPGKSREGVATIHSGGGTYYSDSVKGRFTISRDNAKNTVYLQMNSLKPEDTAVYYCNAEVSTGAGSRGRVSDVYWGQGTQVTVSS ; wanted: its infectivity % under 10 ug/mL VHH treatment
75.9

May I ask what infectivity % under 10 ug/mL VHH treatment has been recorded for PP803 MBP-R2A-F3-H6 (VHH, Form: Monomer) VHH: QVQLVESGGGLVQPGGSLRLSCAASGSITSINWMHWFRQAPGKDREGVASISQTGRGSYADSVKGRFTISRDNAKNTVYLQMNSLKPEDTAVYYCAAASRTGTPYNYWGQGTQVTVSS ?
70.7

infectivity % under 10 ug/mL VHH treatment for PP836 MBP-R5D-A1-H6 (VHH, Form: Monomer) VHH: QVQLVESGGGLVQPGGSLRLSCAASGSISSYNAMHWFRQAPGKQREWVAGLTSSGSDGYVDSVKGRFTISRDNAKNTVYLQMNSLKPEDTAVYYCNAFSYHTYSRYDFWGQGTQVTVSS ?
55

Request the reported infectivity % under 10 ug/mL VHH treatment associated with PP1149 MBP-5HVZ-PAPA-R5a-E5-H6 (VHH, Form: Dimer) VHH: QVQLVESGGGLVQPGGSLRLSCAASGYDFDILRMAWFRQAPGKEREMVAAITSAESVNYEDSVKGRFTISRDNAKNTVYLQMNSLKPEDTAVYYCATYDYTDDYGYASWGQGTQVTVSS
25.5
